tested on: M. fortuitum group; experiment: MIC (CLSI broth dilution), RGM isolates; assay type: cell-based; conditions: Mycolicibacterium fortuitum, isolate 24, M. fortuitum group, M. fortuitum; read-out: MIC
For each entry below, report its MIC value.

Ask: Find MIC for CO[C@@]1(NC(=O)Cc2cccs2)C(=O)N2C(C(=O)O)=C(COC(N)=O)CS[C@@H]21 [FOX, cefoxitin] on M. fortuitum group and write it down.
Reply: > 64 µg/mL

Ask: Find MIC for CN(C)c1cc(CNCC(C)(C)C)c(O)c2c1C[C@H]1C[C@H]3[C@H](N(C)C)C(O)=C(C(N)=O)C(=O)[C@@]3(O)C(O)=C1C2=O [OMC] on M. fortuitum group and write it down.
Reply: 0.12 µg/mL

Ask: Find MIC for CN(C)c1ccc(O)c2c1C[C@H]1C[C@H]3[C@H](N(C)C)C(O)=C(C(N)=O)C(=O)[C@@]3(O)C(O)=C1C2=O [minocycline] on M. fortuitum group and write it down.
Reply: ≤ 0.5 µg/mL

Ask: Find MIC for CC(=O)NC[C@H]1CN(c2ccc(N3CCOCC3)c(F)c2)C(=O)O1 [linezolid] on M. fortuitum group and write it down.
Reply: 4 µg/mL

Ask: Find MIC for COc1c(N2C[C@@H]3CCCN[C@@H]3C2)c(F)cc2c(=O)c(C(=O)O)cn(C3CC3)c12 [MXF, moxifloxacin] on M. fortuitum group and write it down.
Reply: ≤ 0.06 µg/mL
